Target: T1, human CD39 (cellular) (human, UniProt P49961 1-510)
T1 construct: Same protein on engineered CHO cells and on cells that express it endogenously; also called hCD39; cellular CD39
T1 sequence: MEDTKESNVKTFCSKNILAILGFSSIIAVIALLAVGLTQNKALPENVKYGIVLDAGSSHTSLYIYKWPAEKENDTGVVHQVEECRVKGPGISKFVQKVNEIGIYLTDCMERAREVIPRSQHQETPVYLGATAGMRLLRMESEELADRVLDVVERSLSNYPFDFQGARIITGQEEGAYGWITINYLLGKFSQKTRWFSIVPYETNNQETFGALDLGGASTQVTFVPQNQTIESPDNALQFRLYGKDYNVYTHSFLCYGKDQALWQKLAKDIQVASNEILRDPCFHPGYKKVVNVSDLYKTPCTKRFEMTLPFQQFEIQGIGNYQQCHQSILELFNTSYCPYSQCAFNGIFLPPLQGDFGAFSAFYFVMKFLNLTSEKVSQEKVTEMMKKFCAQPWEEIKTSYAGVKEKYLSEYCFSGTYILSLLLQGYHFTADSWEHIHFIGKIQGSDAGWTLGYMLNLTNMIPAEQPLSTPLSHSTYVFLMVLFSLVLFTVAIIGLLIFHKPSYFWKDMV
Test: flow cytometry, 100 nM IgG, MFI on CHO-hCD39 / MFI on parental CHO;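 also: cells exposed to IgG for 30 min on ice in PBS, bound antibody then revealed with a fluorescent goat anti-human IgG secondary (20 min, on ice)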
Provide the recorded Cell Binding (FOB) for the entries that follow.
The reply must contain the numeric value and, after it, the unit.

27568 (antibody, human IgG4 S228P, kappa, V domains shown) VH: QVQLVQSGAEVKKPGSSVKVPCKASGGTFSSYAISWVRQAPEQGLEWMGSIIPIFGTANYAQKFQGRVTITADESTSTAYMELSSLRSEDTAVYYCAGESGGYRDHKLDVWGQGTVVTVSS VL: EIVLTQSPATLSLSPGERATLSCRASQSVSSYLAWYQQKPGQAPRLLIYDASNRATGIPARFSGSGSGTDFTLTISSLEPEDFAVYYCQQSVFWPITFGGGTKVEIKR = 267 fold over background

Switching to the query record.
If you can, please state the reported Cell Binding (FOB) value of 31431 (antibody, V domains shown) VH: QVQLVQSGAEVKKPGASVKVSCKASGYTFTSYQMHWVRQAPGQGLEWMGRINPSGGSTWYAQKFQGRVTMTRDTSTSTVYMELSSLRSEDTAVYYCARGKREGGTEYLRHWGQGTLVTVSS VL: EIVLTQSPGTLSLSPGERATLSCRASQSVASSYLAWYQQKPGQAPRLLIYGASNRHTGIPDRFSGSGSGTDFTLTISRLEPEDFAVYYCQQYHGGITFGGGTKVEIK .
1240 fold over background
